Would you mind telling me the reported microsomal CLint at 3 µM of each entry?
# Method: Human liver microsome intrinsic clearance
# Type: in vitro ADME
# Assay Setup: human, human liver microsomes, pH 7.4, HLM clint

{"columns": ["Compound", "microsomal CLint at 3 µM"],
 "data": [
  ["COc1ccn2c(N)c(-c3ccccn3)nc2c1", "120 µL/min/mg"],
  ["Fc1ccc(Nc2c(-c3ccccn3)nc3c(F)cccn23)cc1", "220 µL/min/mg"],
  ["COc1cccn2c(Nc3ccc(F)cc3)c(-c3ccccn3)nc12", "143 µL/min/mg"],
  ["Fc1ccc(Nc2c(-c3ccccn3)nc3cccc(F)n23)cc1", "60 µL/min/mg"],
  ["Fc1ccc(Nc2c(-c3ccccn3)nc3ccc(C4CC4)cn23)cc1", "91.6 µL/min/mg"]
]}

// for each compound below, give its microsomal CLint at 3 µM
1. Fc1ccc(Nc2c(-c3ccccn3)nc3ccc(-c4cnoc4)cn23)cc1
2. Fc1ccc(Nc2c(-c3ccccn3)nc3ncccn23)cc1
3. c1ccc(-c2cn3ccccc3n2)nc1 [Compound 11a, 2-(Pyridin-2-yl)imidazo[1,2-a]pyridine]
4. Fc1ccc(Nc2c(-c3ccccn3)nc3ccc(F)cn23)cc1

["75 µL/min/mg", "42.4 µL/min/mg", "130 µL/min/mg", "> 300 µL/min/mg"]

----------
# Method: Cytotoxicity toward primary peritoneal mouse macrophages
# Assay type: cell-based
# Assay Setup: Swiss, mouse, primary peritoneal mouse macrophages (PMM), PMM pCC50, primary mouse macrophages; highest in-test concentration 64 μM
Experimental Readout: CC50 at 5 days

// for each molecule below, give its CC50 at 5 days
1. Fc1ccc(Nc2c(-c3ccccn3)nc3ccncn23)cc1 [Compound 3g]
2. COc1ccc2nc(-c3ccccn3)c(Nc3ccc(F)cc3)n2c1 [Compound 3f]
3. Fc1ccc(Nc2c(-c3ccccn3)nc3cc(F)ccn23)cc1 [Compound 3h]
4. CS(=O)(=O)c1ccc2nc(-c3ccccn3)c(Nc3ccc(F)cc3)n2c1 [Compound 3o]
5. COc1cccn2c(Nc3ccc(F)cc3)c(-c3ccccn3)nc12 [Compound 3l]

1: > 63.1 µM; 2: 31.6 µM; 3: > 63.1 µM; 4: 31.6 µM; 5: > 63.1 µM

// for each molecule below, give its CC50 at 5 days
1. c1ccc(-c2cn3ccccc3n2)nc1 [Compound 11a, 2-(Pyridin-2-yl)imidazo[1,2-a]pyridine]
2. COc1ccn2c(Cl)c(-c3ccccn3)nc2c1 [Compound 12]
3. Fc1ccc(Nc2c(-c3ccccn3)nc3ncccn23)cc1 [Compound 3m]
4. Fc1ccc(Nc2c(-c3ccccn3)nc3c(F)cccn23)cc1 [Compound 3k]

> 63.1 µM
31.6 µM
> 63.1 µM
> 63.1 µM

----------
# Method: Cytotoxicity toward primary peritoneal mouse macrophages
# Assay type: cell-based
# Assay Setup: Swiss, mouse, primary peritoneal mouse macrophages (PMM), PMM pCC50, primary mouse macrophages; highest in-test concentration 64 μM
Experimental Readout: CC50 at 5 days

Solved cases (5 shown):
{"columns": ["Compound", "CC50 at 5 days"],
 "data": [
  ["COc1ccn2cc(-c3ccccn3)nc2c1 [Compound 11b]", "> 63.1 µM"],
  ["Fc1ccc(Nc2c(-c3ccccn3)nc3ccc(F)cn23)cc1 [Compound 3e]", "50.1 µM"],
  ["Fc1ccc(Nc2c(-c3ccccn3)nc3ccc(C4CC4)cn23)cc1 [Compound 3p]", "7.94 µM"],
  ["Fc1ccc(Nc2c(-c3ccccn3)nc3cccc(F)n23)cc1 [Compound 3b]", "> 63.1 µM"],
  ["Fc1ccc(Nc2c(-c3ccccn3)nc3cccnn23)cc1 [Compound 3d]", "31.6 µM"]
]}

Which CC50 at 5 days value is on record for Fc1ccc(Nc2c(-c3ccccn3)nc3ccc(-c4cnoc4)cn23)cc1 [Compound 3q] ?
> 63.1 µM
